Where a SMILES comes first, the peptide text is derived from it. [ ]: non-standard residue; d: D form. The star is where a group is joined. NH(CH2)3NH(1-anthraquinonyl) = O=C1c2ccccc2C(=O)c2c(NCCCN*)cccc21; Nle = CCCC[C@H](N)C(=O)O; Nva = CCC[C@H](N)C(=O)O; Mob = COc1ccc(C*)cc1
melting point by entry:
Quick note: give the figure in °C, leave out the unit.

Recorded melting point, per entry:
Exercise: Value lookup for melting point; key = `CC(C)C[C@H](NC(=O)[C@@H](N)Cc1ccccc1)C(=O)NCC(=O)N1CCC[C@@H]1C(=O)NCCCNc1cccc2c1C(=O)c1ccccc1C2=O.O=C(O)C(F)(F)F`
Solution: 170

Exercise: Value lookup for melting point; key = CCC[C@H](NC(=O)[C@@H](N)Cc1ccc(O)cc1)C(=O)NCC(=O)N[C@@H](CC(C)C)C(=O)N1CCC[C@H]1C(=O)NCCCNc1cccc2c1C(=O)c1ccccc1C2=O.O=C(O)C(F)(F)F (H-Y[Nva]GLP-{NH(CH2)3NH(1-anthraquinonyl)})
Solution: 174

Exercise: Value lookup for melting point; key = COc1ccc(CSC[C@H](N)C(=O)NCC(=O)N[C@@H](CC(C)C)C(=O)N2CCC[C@H]2C(=O)NCCCNc2cccc3c2C(=O)c2ccccc2C3=O)cc1.O=C(O)C(F)(F)F (H-C(Mob)GLP-{NH(CH2)3NH(1-anthraquinonyl)})
Solution: 182

Exercise: Value lookup for melting point; key = CC(C)C[C@H](NC(=O)[C@H](C)NC(=O)[C@H](C)NC(=O)[C@@H](C)N)C(=O)NCC(=O)N[C@@H](CC(C)C)C(=O)N1CCC[C@@H]1C(=O)NCCCNc1cccc2c1C(=O)c1ccccc1C2=O.O=C(O)C(F)(F)F [Example 15] (H-[dA]AALGL[dP]-{NH(CH2)3NH(1-anthraquinonyl)})
Solution: 166

Exercise: Value lookup for melting point; key = CCCC[C@H](NC(=O)[C@H](C)NC(=O)[C@H](C)N)C(=O)NCC(=O)N[C@@H](CC(C)C)C(=O)N1CCC[C@H]1C(=O)NCCCNc1cccc2c1C(=O)c1ccccc1C2=O.O=C(O)C(F)(F)F (H-AA[Nle]GLP-{NH(CH2)3NH(1-anthraquinonyl)})
Solution: 176

Exercise: Value lookup for melting point; key = `CCC[C@H](NC(=O)CN)C(=O)N1CCC[C@H]1C(=O)NCCCNc1cccc2c1C(=O)c1ccccc1C2=O.O=C(O)C(F)(F)F`
Solution: 196

Further cases:
Exercise: Value lookup for melting point; key = `CC(C)C[C@H](NC(=O)[C@H](Cc1ccccc1)NC(=O)CN)C(=O)NCC(=O)N1CCC[C@H]1C(=O)NCCCNc1cccc2c1C(=O)c1ccccc1C2=O.O=C(O)C(F)(F)F`
Solution: 157
